assay: Metabolic stability in rat hepatocyte assessed as intrinsic clearance measured per million cells; format: ADME, cell-based; details: hepatocytes, read-out: CLH
experimental.endpoint: hepatocyte CLint (µL/min/1e6 cells)
Field: numeric (µL/min/1e6 cells). Do not append units.

In: Please report the measured hepatocyte CLint for CC(C)(O)c1cc2nc([C@H]3CC[C@H](CN4CC5(CC(CCNc6cccc7c6C(=O)N(C6CCC(=O)NC6=O)C7=O)C5)C4)CC3)sc2cc1NC(=O)c1cccc(C(F)(F)F)n1 (stereo partly specified) [ZOMIRADOMIDE]
Out: 0.8

----------
Known log10(DC50) of a selection of molecules
target: Cereblon/Ikaros (Homo sapiens, UniProt Q96SW2+Q13422); assay: PROTAC activity at CRBN/Ikaros in human OCI-Ly10 cells assessed as induction of Ikaros degradation measured after 24 hrs by MSD assay; format: cell-based
Sequence (Q96SW2 whole entry): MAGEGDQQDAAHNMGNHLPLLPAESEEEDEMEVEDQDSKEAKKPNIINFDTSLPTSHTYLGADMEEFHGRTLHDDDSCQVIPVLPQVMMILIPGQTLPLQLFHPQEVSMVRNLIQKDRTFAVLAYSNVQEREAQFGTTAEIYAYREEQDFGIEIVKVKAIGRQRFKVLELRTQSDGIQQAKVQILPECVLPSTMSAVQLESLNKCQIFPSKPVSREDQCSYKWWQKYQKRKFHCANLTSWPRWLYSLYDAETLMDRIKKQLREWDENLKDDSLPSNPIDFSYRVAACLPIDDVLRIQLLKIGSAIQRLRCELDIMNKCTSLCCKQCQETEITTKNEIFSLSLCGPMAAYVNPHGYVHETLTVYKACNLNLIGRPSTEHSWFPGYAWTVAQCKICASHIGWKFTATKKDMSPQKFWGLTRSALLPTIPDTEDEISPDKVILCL
Sequence (Q13422 whole entry): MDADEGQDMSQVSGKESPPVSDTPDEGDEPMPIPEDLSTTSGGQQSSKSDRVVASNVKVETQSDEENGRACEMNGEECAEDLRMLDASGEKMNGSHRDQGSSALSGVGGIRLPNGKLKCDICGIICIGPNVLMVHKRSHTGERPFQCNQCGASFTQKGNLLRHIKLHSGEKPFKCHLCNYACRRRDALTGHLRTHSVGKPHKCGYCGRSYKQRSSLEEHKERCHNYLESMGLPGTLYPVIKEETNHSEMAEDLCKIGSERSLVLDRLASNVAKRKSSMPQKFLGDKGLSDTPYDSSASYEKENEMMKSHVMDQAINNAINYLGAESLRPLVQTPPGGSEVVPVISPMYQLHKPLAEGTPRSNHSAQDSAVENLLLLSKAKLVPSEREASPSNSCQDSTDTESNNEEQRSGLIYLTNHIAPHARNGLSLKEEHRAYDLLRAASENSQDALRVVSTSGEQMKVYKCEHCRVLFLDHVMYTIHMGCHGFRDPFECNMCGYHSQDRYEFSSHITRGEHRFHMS
Values reflect log10 of reported DC50 (nM).

Below, 4 molecules whose answers are already recorded.
CN(CCCO[C@H]1C[C@@H](Nc2cccc3c2C(=O)N(C2CCC(=O)NC2=O)C3=O)C1)C[C@H]1CC[C@H](n2cc3cc(NC(=O)c4cccc(C(F)(F)F)n4)c(C(C)(C)O)cc3n2)CC1 (stereo not given in full) : 1.00
CN(CCCN(C)c1cccc2c1C(=O)N(C1CCC(=O)NC1=O)C2=O)C[C@H]1CC[C@H](n2cc3cc(NC(=O)c4cccc(C(F)(F)F)n4)c(C(C)(C)O)cc3n2)CC1 (stereo not given in full) : 2.45
CC(C)(O)c1cc2nn([C@H]3CC[C@H](CN4CCC(O[C@H]5C[C@H](Nc6cccc7c6C(=O)N(C6CCC(=O)NC6=O)C7=O)C5)CC4)CC3)cc2cc1NC(=O)c1cccc(C(F)(F)F)n1 (stereo not given in full) : 2.67
CC(C)(O)c1cc2nn([C@H]3CC[C@H](CN4CCC5(CC4)CC(Nc4cccc6c4C(=O)N(C4CCC(=O)NC4=O)C6=O)C5)CC3)cc2cc1NC(=O)c1cccc(C(F)(F)F)n1 (stereo not given in full) : 1.43

Attention now shifts to the item below.
In: Please report the measured log10(DC50) for "CC(C)(O)c1cc2nc([C@H]3CC[C@H](CN4CC5(CC(CCNc6cccc7c6C(=O)N([C@@H]6CCC(=O)NC6=O)C7=O)C5)C4)CC3)sc2cc1NC(=O)c1cccc(C(F)(F)F)n1"
Out: 0.95

----------
assay: Clearance in mouse at 2 mg/kg, iv by LC-MS/MS analysis; type: ADME, organism-based; conditions: in vivo
experimental.endpoint: clearance (mL/min/kg)
Field: numeric (mL/min/kg). Do not append units.

In: Please report the measured clearance for CC(C)(O)c1cc2nc([C@H]3CC[C@H](CN4CC5(CC(CCNc6cccc7c6C(=O)N(C6CCC(=O)NC6=O)C7=O)C5)C4)CC3)sc2cc1NC(=O)c1cccc(C(F)(F)F)n1 (stereo partly specified) [ZOMIRADOMIDE]
Out: 11

----------
Known DC50 of a selection of molecules
target: Cereblon/Ikaros (Homo sapiens, UniProt Q96SW2+Q13422); assay: PROTAC activity at CRBN/Ikaros in human OCI-Ly10 cells assessed as induction of Ikaros degradation measured after 24 hrs by MSD assay; type: cell-based
Field: numeric (µM). Do not append units.

Below, 2 molecules whose answers are already recorded.
CC(C)(O)c1cc2nc([C@H]3CC[C@H](CN4CC5(CC(CCNc6cccc7c6C(=O)N(C6CCC(=O)NC6=O)C7=O)C5)C4)CC3)sc2cc1NC(=O)c1cccc(C(F)(F)F)n1 (some centres undefined) [ZOMIRADOMIDE] : 0.001
COc1cc2nn([C@H]3CC[C@H](CN4CCC5(CC4)CC(CNc4cccc6c4C(=O)N(C4CCC(=O)NC4=O)C6=O)C5)CC3)cc2cc1NC(=O)c1cccc(C(F)(F)F)n1 (some centres undefined) : 0.043

Attention now shifts to the item below.
In: Please report the measured DC50 for CN(CCCOCCCNc1cccc2c1C(=O)N(C1CCC(=O)NC1=O)C2=O)C[C@H]1CC[C@H](n2cc3cc(NC(=O)c4cccc(C(F)(F)F)n4)c(C(C)(C)O)cc3n2)CC1 (some centres undefined)
Out: 0.021

Sourced from ChEMBL document CHEMBL5523727
